Molecular target: PI3K-γ (Homo sapiens)
Sequence (P48736 whole entry, species assumed): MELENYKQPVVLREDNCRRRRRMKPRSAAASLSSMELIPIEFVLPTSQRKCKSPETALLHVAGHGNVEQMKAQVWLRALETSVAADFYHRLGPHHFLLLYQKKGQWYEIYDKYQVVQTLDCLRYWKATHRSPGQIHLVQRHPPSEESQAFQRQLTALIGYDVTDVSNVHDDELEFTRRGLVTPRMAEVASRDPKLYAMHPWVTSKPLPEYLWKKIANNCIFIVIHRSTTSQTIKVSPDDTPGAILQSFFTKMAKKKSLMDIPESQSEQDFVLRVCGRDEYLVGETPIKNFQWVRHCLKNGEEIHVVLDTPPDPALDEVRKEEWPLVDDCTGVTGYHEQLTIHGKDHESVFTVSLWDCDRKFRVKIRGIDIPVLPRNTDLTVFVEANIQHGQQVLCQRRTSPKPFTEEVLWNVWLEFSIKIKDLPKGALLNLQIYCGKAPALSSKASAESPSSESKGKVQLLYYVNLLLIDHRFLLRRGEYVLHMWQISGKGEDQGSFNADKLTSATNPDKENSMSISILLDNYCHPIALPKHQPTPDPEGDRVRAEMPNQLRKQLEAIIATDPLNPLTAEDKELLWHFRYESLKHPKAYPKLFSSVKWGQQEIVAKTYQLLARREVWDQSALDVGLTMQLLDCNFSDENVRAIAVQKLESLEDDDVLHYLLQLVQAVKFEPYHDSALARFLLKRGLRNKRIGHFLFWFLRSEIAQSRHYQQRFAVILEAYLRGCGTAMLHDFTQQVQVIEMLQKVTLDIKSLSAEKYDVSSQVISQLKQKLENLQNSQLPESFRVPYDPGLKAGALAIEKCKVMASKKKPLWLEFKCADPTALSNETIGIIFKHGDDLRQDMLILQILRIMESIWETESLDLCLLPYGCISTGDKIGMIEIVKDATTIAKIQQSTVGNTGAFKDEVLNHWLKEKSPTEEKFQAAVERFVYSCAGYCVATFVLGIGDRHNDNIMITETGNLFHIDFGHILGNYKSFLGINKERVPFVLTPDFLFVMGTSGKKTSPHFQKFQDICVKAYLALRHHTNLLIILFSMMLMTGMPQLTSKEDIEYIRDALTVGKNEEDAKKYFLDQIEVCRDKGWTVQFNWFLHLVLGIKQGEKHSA
Experiment: PI3K-gamma fluorescence polarization assay
Conditions: read-out: IC50 PI3Kγ
pIC50: −log10 of the molar value.
Using pIC50 as the sorting value, the categories are low group (below 6), middle group (6 to below 7), high group (7 or more)

-- ask Please report the category associated with `CNC(=O)Nc1ccc(-c2nc(Nc3ccc(N4CCNCC4)cc3)nc(N3CC4CCC(C3)O4)n2)cc1` , nothing else.
-- reply low group

-- ask Please report the category associated with `CC(C)Nc1nc(-c2ccc(NC(=O)Nc3ccc(CN4CCN(C)CC4)cc3)cc2)nc(N2C3CCC2COC3)n1` , nothing else.
-- reply low group

-- ask Please report the category associated with `CNCCNC(=O)c1ccc(NC(=O)Nc2ccc(-c3nc(C4CCOCC4)nc(N4C5CCC4COC5)n3)cc2)cc1` , nothing else.
-- reply middle group

-- ask Please report the category associated with `CN1CCN(C(=O)c2ccc(NC(=O)Nc3ccc(-c4nc(-c5cccs5)nc(N5CCOCC5)n4)cc3)cc2)CC1` , nothing else.
-- reply high group

-- ask Please report the category associated with `C[C@@H]1COCCN1c1nc(-c2ccc(NC(=O)Nc3ccc(CN(C)C)cc3)cc2)nc(N2CCOC[C@H]2C)n1` , nothing else.
-- reply low group

-- ask Please report the category associated with `Nc1nc2cc(-c3nc(N4CCOCC4)nc(N4C5CCC4COC5)n3)ccc2[nH]1` , nothing else.
-- reply low group

-- ask Please report the category associated with `CN(C)[C@@H]1CCN(C(=O)c2ccc(NC(=O)Nc3ccc(-c4nc(N5CCOCC5)nc(N5C6CCC5COC6)n4)cc3)cc2)C1` , nothing else.
-- reply high group

-- ask Please report the category associated with `CN(C)c1nc(-c2ccc(NC(=O)Nc3cccnc3)cc2)nc(N2CC3CCC(C2)O3)n1` , nothing else.
-- reply middle group

-- ask Please report the category associated with `C[C@H]1COCCN1c1nc(-c2ccc(NC(=O)Nc3ccc(C(=O)NCCN4CCN(C)CC4)cc3)cc2)nc(N2CCOC[C@@H]2C)n1` , nothing else.
-- reply middle group
